Assay: Dose linearity study: single IV dose PK, noncompartmental analysis
Format: in vivo, female BALB/c mice
Conditions: female, BALB/c, mouse, plasma, iv, 6 mg/kg
RESULT_TYPE: Cmax

1. CNCc1ccc(-c2cc(-c3nc(-c4ccc(S(=O)(=O)C(C)C)cc4)cnc3N)on2)cc1 | 3470 ng/mL

* * *

Assay type: in vivo, BALB/c mice
Settings: BALB/c, mouse, red blood cells (RBC), iv, 20 mg/kg
RESULT_TYPE: Tmax (min)

1. CNCc1ccc(-c2cc(-c3nc(-c4ccc(S(=O)(=O)C(C)C)cc4)cnc3N)on2)cc1 | 5

* * *

Type: in vivo, BALB/c mice
Settings: BALB/c, mouse, plasma, iv, 20 mg/kg, AUC0-t; 20 mg/kg IV-ext, tumor-bearing mice
RESULT_TYPE: AUC(0-t) (ng·h/mL)

1) CNCc1ccc(-c2cc(-c3nc(-c4ccc(S(=O)(=O)C(C)C)cc4)cnc3N)on2)cc1 [berzosertib] | 14200

* * *

Format: in vivo, BALB/c mice
Conditions: BALB/c, mouse, non-draining lymph node, iv, 20 mg/kg
RESULT_TYPE: Tmax (min)

1. CNCc1ccc(-c2cc(-c3nc(-c4ccc(S(=O)(=O)C(C)C)cc4)cnc3N)on2)cc1 [berzosertib] | 30

* * *

Assay type: in vivo, BALB/c mice
Conditions: BALB/c, mouse, draining lymph node, iv, 20 mg/kg
RESULT_TYPE: Cmax (ng/mL)

1) CNCc1ccc(-c2cc(-c3nc(-c4ccc(S(=O)(=O)C(C)C)cc4)cnc3N)on2)cc1 [berzosertib] | 12900

* * *

Assay type: in vivo, BALB/c mice
Settings: BALB/c, mouse, bone marrow, iv, 20 mg/kg
RESULT_TYPE: Tmax (h)

1. CNCc1ccc(-c2cc(-c3nc(-c4ccc(S(=O)(=O)C(C)C)cc4)cnc3N)on2)cc1 | 1

* * *

Type: in vivo, BALB/c mice
Conditions: BALB/c, mouse, thymus, iv, 20 mg/kg
RESULT_TYPE: Cmax (ng/mL)

1. CNCc1ccc(-c2cc(-c3nc(-c4ccc(S(=O)(=O)C(C)C)cc4)cnc3N)on2)cc1 [berzosertib] | 13500

* * *

Assay type: in vivo, BALB/c mice
Details: BALB/c, mouse, kidney, iv, 20 mg/kg
RESULT_TYPE: Kp

1) CNCc1ccc(-c2cc(-c3nc(-c4ccc(S(=O)(=O)C(C)C)cc4)cnc3N)on2)cc1 | 57.7

* * *

Type: in vivo, BALB/c mice
Conditions: BALB/c, mouse, draining lymph node, iv, 20 mg/kg
RESULT_TYPE: Tmax (h)

1) CNCc1ccc(-c2cc(-c3nc(-c4ccc(S(=O)(=O)C(C)C)cc4)cnc3N)on2)cc1 | 1

* * *

Assay type: in vivo, BALB/c mice
Details: BALB/c, mouse, spinal cord, iv, 20 mg/kg
RESULT_TYPE: Tmax (min)

1) CNCc1ccc(-c2cc(-c3nc(-c4ccc(S(=O)(=O)C(C)C)cc4)cnc3N)on2)cc1 [berzosertib] | 15

* * *

Format: in vivo, BALB/c mice
Details: BALB/c, mouse, plasma, iv, 20 mg/kg
RESULT_TYPE: AUC(0-inf) (ng·h/mL)

1. CNCc1ccc(-c2cc(-c3nc(-c4ccc(S(=O)(=O)C(C)C)cc4)cnc3N)on2)cc1 [berzosertib] | 15100

* * *

Type: in vivo, BALB/c mice
Details: BALB/c, mouse, bone marrow, iv, 20 mg/kg
RESULT_TYPE: AUC(0-inf) (µg·h/mL)

1. CNCc1ccc(-c2cc(-c3nc(-c4ccc(S(=O)(=O)C(C)C)cc4)cnc3N)on2)cc1 | 1110

* * *

Type: in vivo, BALB/c mice
Details: BALB/c, mouse, kidney, iv, 20 mg/kg
RESULT_TYPE: Tmax (min)

1. CNCc1ccc(-c2cc(-c3nc(-c4ccc(S(=O)(=O)C(C)C)cc4)cnc3N)on2)cc1 | 5

* * *

Assay type: in vivo, BALB/c mice
Conditions: BALB/c, mouse, brain, iv, 20 mg/kg
RESULT_TYPE: AUC(0-inf) (ng·h/mL)

1. CNCc1ccc(-c2cc(-c3nc(-c4ccc(S(=O)(=O)C(C)C)cc4)cnc3N)on2)cc1 [berzosertib] | 4520

* * *

Type: in vivo, BALB/c mice
Details: BALB/c, mouse, plasma, iv, 20 mg/kg, AUC0-t; 20 mg/kg IV; 0–1440 min
RESULT_TYPE: AUC(0-t) (µg·h/mL)

1. CNCc1ccc(-c2cc(-c3nc(-c4ccc(S(=O)(=O)C(C)C)cc4)cnc3N)on2)cc1 | 14.2

* * *

Format: in vivo, BALB/c mice
Settings: BALB/c, mouse, non-draining lymph node, iv, 20 mg/kg
RESULT_TYPE: Kp

1. CNCc1ccc(-c2cc(-c3nc(-c4ccc(S(=O)(=O)C(C)C)cc4)cnc3N)on2)cc1 | 7.79

* * *

Assay type: in vivo, BALB/c mice
Details: BALB/c, mouse, skeletal muscle, iv, 20 mg/kg
RESULT_TYPE: Cmax

1. CNCc1ccc(-c2cc(-c3nc(-c4ccc(S(=O)(=O)C(C)C)cc4)cnc3N)on2)cc1 [berzosertib] | 9950 ng/mL

* * *

Type: in vivo, BALB/c mice
Details: BALB/c, mouse, tumor (CT26), intravenous, 20 mg/kg
RESULT_TYPE: Kp

1) CNCc1ccc(-c2cc(-c3nc(-c4ccc(S(=O)(=O)C(C)C)cc4)cnc3N)on2)cc1 | 8.68

* * *

Assay type: in vivo, BALB/c mice
Conditions: BALB/c, mouse, fat, iv, 20 mg/kg
RESULT_TYPE: Kp

1) CNCc1ccc(-c2cc(-c3nc(-c4ccc(S(=O)(=O)C(C)C)cc4)cnc3N)on2)cc1 [berzosertib] | 1.59

* * *

Experiment: Dose linearity study: single IV dose PK, noncompartmental analysis
Format: in vivo, female BALB/c mice
Settings: female, BALB/c, mouse, plasma, iv, 20 mg/kg, CL, calculated using AUC0-∞; 20 mg/kg IV
RESULT_TYPE: clearance (mL/min/kg)

1. CNCc1ccc(-c2cc(-c3nc(-c4ccc(S(=O)(=O)C(C)C)cc4)cnc3N)on2)cc1 | 32.6

* * *

Assay: Dose linearity study: single IV dose PK, noncompartmental analysis
Type: in vivo, female BALB/c mice
Conditions: female, BALB/c, mouse, plasma, iv, 2 mg/kg
RESULT_TYPE: AUC(0-inf) (µg·h/mL)

1) CNCc1ccc(-c2cc(-c3nc(-c4ccc(S(=O)(=O)C(C)C)cc4)cnc3N)on2)cc1 [berzosertib] | 0.867

* * *

Experiment: Dose linearity study: single IV dose PK, noncompartmental analysis
Type: in vivo, female BALB/c mice
Settings: female, BALB/c, mouse, plasma, iv, 6 mg/kg
RESULT_TYPE: Vd (L/kg)

1. CNCc1ccc(-c2cc(-c3nc(-c4ccc(S(=O)(=O)C(C)C)cc4)cnc3N)on2)cc1 | 9.63

* * *

Assay: Dose linearity study: single IV dose PK, noncompartmental analysis
Assay type: in vivo, female BALB/c mice
Conditions: female, BALB/c, mouse, plasma, iv, 60 mg/kg, AUC0–360, plasma; 60 mg/kg IV
RESULT_TYPE: AUC(0-t) (ng·h/mL)

1. CNCc1ccc(-c2cc(-c3nc(-c4ccc(S(=O)(=O)C(C)C)cc4)cnc3N)on2)cc1 [berzosertib] | 15500

* * *

Format: in vivo, BALB/c mice
Settings: BALB/c, mouse, esophagus, iv, 20 mg/kg
RESULT_TYPE: Cmax

1. CNCc1ccc(-c2cc(-c3nc(-c4ccc(S(=O)(=O)C(C)C)cc4)cnc3N)on2)cc1 | 12100 ng/mL

* * *

Type: in vivo, BALB/c mice
Settings: BALB/c, mouse, heart, iv, 20 mg/kg
RESULT_TYPE: Tmax (min)

1. CNCc1ccc(-c2cc(-c3nc(-c4ccc(S(=O)(=O)C(C)C)cc4)cnc3N)on2)cc1 | 5

* * *

Format: in vivo, BALB/c mice
Settings: BALB/c, mouse, thymus, iv, 20 mg/kg
RESULT_TYPE: Tmax (min)

1. CNCc1ccc(-c2cc(-c3nc(-c4ccc(S(=O)(=O)C(C)C)cc4)cnc3N)on2)cc1 | 30

* * *

Experiment: Dose linearity study: single IV dose PK, noncompartmental analysis
Assay type: in vivo, female BALB/c mice
Conditions: female, BALB/c, mouse, plasma, iv, 20 mg/kg, AUC0–360, plasma; 20 mg/kg IV
RESULT_TYPE: AUC(0-t) (ng·h/mL)

1) CNCc1ccc(-c2cc(-c3nc(-c4ccc(S(=O)(=O)C(C)C)cc4)cnc3N)on2)cc1 | 7070

* * *

Assay type: in vivo, BALB/c mice
Conditions: BALB/c, mouse, esophagus, iv, 20 mg/kg, AUC0-t; 20 mg/kg IV; 0–1440 min
RESULT_TYPE: AUC(0-t) (ng·h/mL)

1) CNCc1ccc(-c2cc(-c3nc(-c4ccc(S(=O)(=O)C(C)C)cc4)cnc3N)on2)cc1 | 43600

Origin of measurements: paper PMC11390321
